- MEASURED ON: KRAS^G12D protein (Homo sapiens, UniProt P01116, G12D)
- Construct: host or cells: Aspc-1 (AsPC-1) cells
- Sequence (P01116 1-188 isoform P01116-2 G12D): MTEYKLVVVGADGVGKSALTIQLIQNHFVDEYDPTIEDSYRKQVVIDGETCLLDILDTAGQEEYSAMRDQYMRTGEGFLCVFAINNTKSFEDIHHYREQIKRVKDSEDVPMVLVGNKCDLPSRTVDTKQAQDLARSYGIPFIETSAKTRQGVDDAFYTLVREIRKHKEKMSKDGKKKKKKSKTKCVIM
- PROCEDURE TEXT: Protein degradation study (western blot) in Aspc-1 cells
- Assay type: cell-based
- RUN PARAMETERS: ASPC1, 24 h, Aspc-1 cells treated with 0.005 μM compound, 24 hours; read-out: Rate of degradation
PARAMETER MEASURED: inhibition at 0.005 µM

// lookup inhibition at 0.005 µM for C#Cc1c(F)ccc2cc(O)cc(-c3ncc4c(N5CC6CCC(C5)N6)nc(OCC5(CN6CCC(N7CC(C(=O)N8CCC(c9ccc%10c(C%11CCC(=O)NC%11=O)nn(C)c%10c9)CC8)C7)CC6)CC5)nc4c3F)c12 (stereo not shown) [Compound 35a]
31 to 60%

Requested read-out: inhibition at 0.005 µM. Entry: C#Cc1c(F)ccc2cccc(-c3ncc4c(N5CC6CCC(C5)N6)nc(OCC5(CN6CCC7(CC6)CC(N6CCC(c8ccc9c(C%10CCC(=O)NC%10=O)nn(C)c9c8)CC6)C7)CC5)nc4c3F)c12 (stereo not shown) [Compound 16a]
> 60%

Can you look up the measured inhibition at 0.005 µM of C#Cc1c(F)ccc2cc(O)cc(-c3ncc4c(N5CC6CCC(C5)N6)nc(OCC5(CN6CCC7(CCC(C(=O)N8CCC(c9ccc%10c(C%11CCC(=O)NC%11=O)nn(C)c%10c9)CC8)CC7)CC6)CC5)nc4c3F)c12 (stereo not shown) [Compound 24a] for me?
> 60%

Field request: inhibition at 0.005 µM | item: C#Cc1c(F)ccc2cc(O)cc(-c3ncc4c(N5CC6CCC(C5)N6)nc(OCC5(CN6CCC7(CCC(N8CCC(c9ccc%10c(C%11CCC(=O)NC%11=O)nn(C)c%10c9)CC8)CC7)CC6)CC5)nc4c3F)c12 (stereo not shown) [Compound 33a]
> 60%

* * *

- MEASURED ON: KRAS^G12D protein (Homo sapiens, UniProt P01116, G12D)
- Construct: host or cells: Aspc-1 (AsPC-1) cells
- PROCEDURE TEXT: Protein degradation study (western blot) in Aspc-1 cells
- Assay type: cell-based
- RUN PARAMETERS: ASPC1, 24 h, Aspc-1 cells treated with 1 nM compound, 24 hours; read-out: Rate of degradation
For each record, write down the corresponding inhibition at 0.001 µM.

What measured inhibition at 0.001 µM goes with Nc1cc(Cl)c(C(F)(F)F)c(-c2ncc3c(N4CC5CCC(C4)N5)nc(OCC4(CN5CCC6(CC5)CC(N5CCC(c7ccc8c9c(cccc79)C(=O)N8C7CCC(=O)NC7=O)CC5)C6)CC4)nc3c2F)c1 (centres unmarked) [Compound 13a] ?
> 60%

What value of measured inhibition at 0.001 µM is listed for C#Cc1c(F)ccc2cccc(-c3ncc4c(N5CC6CCC(C5)N6)nc(OCC5(CN6CCC7(CC6)CC(N6CCC(c8ccc9c%10c(cccc8%10)C(=O)N9C8CCC(=O)NC8=O)CC6)C7)CC5)nc4c3F)c12 (centres unmarked) [Compound 14a] ?
> 60%

Name the recorded inhibition at 0.001 µM for C#Cc1c(F)ccc2cc(O)cc(-c3ncc4c(N5CC6CCC(C5)N6)nc(OCC5(CN6CCC7(CC6)CC(N6CCC(c8ccc(NC9CCC(=O)NC9=O)cc8F)CC6)C7)CC5)nc4c3F)c12 (centres unmarked) [Compound 12a] .
> 60%

Value lookup for inhibition at 0.001 µM; key = C#Cc1c(F)ccc2cc(O)cc(-c3ncc4c(N5CC6CCC(C5)N6)nc(OCC5(CN6CCC(CN7CCC(c8cccc(N9CC(=O)NC9=O)c8)CC7)CC6)CC5)nc4c3F)c12
11 to 30%

Give the measured inhibition at 0.001 µM of C#Cc1c(F)ccc2cc(O)cc(-c3ncc4c(N5CC6CCC(C5)N6)nc(OCC5(CN6CCC(CN7CCC(c8cccc(N9CCC(=O)NC9=O)c8C)CC7)CC6)CC5)nc4c3F)c12 .
11 to 30%
